Cited source: paper PMC10115415

System tested: Cyp33 RRM (human, UniProt Q9UNP9 1-114)
Sequence (Q9UNP9 1-114): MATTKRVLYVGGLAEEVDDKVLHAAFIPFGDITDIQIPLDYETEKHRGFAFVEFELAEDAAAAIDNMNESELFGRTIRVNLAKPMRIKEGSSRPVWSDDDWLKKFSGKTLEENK
Assay overview: NMR titration; NMR titrations: 20 mM KHPO4 pH 7, 40 mM KCl, 1 mM DTT, 289.15 K as printed (table S2 says 298.15 K for Kd); structures of complexes: 40 mM KCl, 20 mM KH2PO4 pH
Recorded conditions: protein: recombinant; tags: AGH N-terminal after intein cleavage
Measure: Kd

## Task # input binder: UAAUGU (ssRNA) [UAAUGU RNA] ; wanted: its Kd
## Result ~300 µM
